# SUBJECT_OF_TEST: T1, ECD of murine IGSF11, recombinant biotinylated (mouse, UniProt P0C673 23-240)
# T1 construct: whole entry named; also called Mouse IGSF11
# T1 sequence: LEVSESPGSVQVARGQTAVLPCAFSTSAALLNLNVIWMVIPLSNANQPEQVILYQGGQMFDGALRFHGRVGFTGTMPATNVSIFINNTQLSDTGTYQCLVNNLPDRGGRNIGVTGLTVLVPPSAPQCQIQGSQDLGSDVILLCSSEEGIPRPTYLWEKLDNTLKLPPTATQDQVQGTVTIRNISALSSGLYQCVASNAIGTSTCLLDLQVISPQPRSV
# EXPERIMENT_SUMMARY: ELISA RFU>1.0
MEASURED_ENDPOINT: ELISA binding signal (RFU)

Q: Reported ELISA binding signal (RFU) for A-011 (scFv format) (scFv, V domains shown, scFv) VH: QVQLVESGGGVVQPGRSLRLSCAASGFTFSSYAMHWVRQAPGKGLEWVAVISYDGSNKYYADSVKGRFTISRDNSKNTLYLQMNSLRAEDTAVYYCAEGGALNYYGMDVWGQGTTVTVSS VL: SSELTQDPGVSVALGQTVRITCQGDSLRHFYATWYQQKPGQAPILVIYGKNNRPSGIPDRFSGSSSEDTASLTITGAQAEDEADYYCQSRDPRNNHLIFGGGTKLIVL : what is it?
Ans: > 1 rfu
